target: HLA-DQ molecule DQB1*0503 (human); experiment: inhibition of radiolabeled peptide binding to purified HLA-DQ
Listed below: pIC50 values for each entry.
Worth noting: pIC50 values are minus log10 of concentrations stated in mol/L.

Look up and state reported pIC50 for ASVIPPARLFKAFVL [Que a 1 (11-25) peptide ASVIPPARLFKAFVL] 5.71
